- measurement-protocol: Equilibrium solubility in aqueous buffer (HPLC UV)
- Assay type: physicochemical
- measurement-parameters: aqueous buffer, thermodynamic from solid; equilibrium solubility, NaOAc/AcOH buffer (100 mM, pH 5.0), rt, 24 h; read-out: Solubility
assay-readout: solubility at 24 h

compound | assay-readout | result
C[C@]12CCC(N3CCOCC3)C[C@H]1CC[C@@H]1[C@@H]2CC[C@]2(C)[C@@H](c3ccc(=O)oc3)CC[C@]12O (some centres unmarked) | solubility at 24 h | > 1000 µg/mL

The recorded solubility at 24 h for entry `C[C@]12CC[C@H](NC(=O)N3CCNCC3)C[C@H]1CC[C@@H]1[C@@H]2CC[C@]2(C)[C@@H](c3ccc(=O)oc3)CC[C@]12O` equals > 1000 µg/mL

Summary for this compound, C[C@]12CCC(NCCN3CCOCC3)C[C@H]1CC[C@@H]1[C@@H]2CC[C@]2(C)[C@@H](c3ccc(=O)oc3)CC[C@]12O (some centres unmarked) : solubility at 24 h is > 1000 µg/mL

For this compound ( `C[C@]12CC[C@H](NC(=O)N3CCOCC3)C[C@H]1CC[C@@H]1[C@@H]2CC[C@]2(C)[C@@H](c3ccc(=O)oc3)CC[C@]12O` ), measured solubility at 24 h is < 100 µg/mL

Kindly note the recorded solubility at 24 h for C[C@]12CCC(N3CCCC3)C[C@H]1CC[C@@H]1[C@@H]2CC[C@]2(C)[C@@H](c3ccc(=O)oc3)CC[C@]12O (some centres unmarked) , which is > 1000 µg/mL

---

- measurement-protocol: Equilibrium solubility in aqueous buffer (HPLC UV)
- Type: physicochemical
- measurement-parameters: aqueous buffer, thermodynamic from solid; equilibrium solubility, NaOAc/AcOH buffer (100 mM, pH 5.0), rt, 24 h; read-out: Solubility
List of solubility at 24 h values.

Worked examples follow.
molecule | solubility at 24 h
C[C@]12CCC(NC(=O)N3CCOCC3)C[C@@]1(O)CC[C@@H]1[C@@H]2CC[C@]2(C)[C@@H](c3ccc(=O)oc3)CC[C@]12O (stereo partly drawn) | 0.1 to 1 mg/mL
C[C@@H](N)C(=O)N[C@H]1CC[C@@]2(C)[C@H](CC[C@@H]3[C@@H]2CC[C@]2(C)[C@@H](c4ccc(=O)oc4)CC[C@]32O)C1 | > 1 mg/mL

C[C@]12CCC(N3CCNC(=O)C3)C[C@H]1CC[C@@H]1[C@@H]2CC[C@]2(C)[C@@H](c3ccc(=O)oc3)CC[C@]12O (stereo partly drawn) yielded solubility at 24 h of 0.1 to 1 mg/mL
